# system name: UniProt P22303
# Sequence (P22303 whole entry): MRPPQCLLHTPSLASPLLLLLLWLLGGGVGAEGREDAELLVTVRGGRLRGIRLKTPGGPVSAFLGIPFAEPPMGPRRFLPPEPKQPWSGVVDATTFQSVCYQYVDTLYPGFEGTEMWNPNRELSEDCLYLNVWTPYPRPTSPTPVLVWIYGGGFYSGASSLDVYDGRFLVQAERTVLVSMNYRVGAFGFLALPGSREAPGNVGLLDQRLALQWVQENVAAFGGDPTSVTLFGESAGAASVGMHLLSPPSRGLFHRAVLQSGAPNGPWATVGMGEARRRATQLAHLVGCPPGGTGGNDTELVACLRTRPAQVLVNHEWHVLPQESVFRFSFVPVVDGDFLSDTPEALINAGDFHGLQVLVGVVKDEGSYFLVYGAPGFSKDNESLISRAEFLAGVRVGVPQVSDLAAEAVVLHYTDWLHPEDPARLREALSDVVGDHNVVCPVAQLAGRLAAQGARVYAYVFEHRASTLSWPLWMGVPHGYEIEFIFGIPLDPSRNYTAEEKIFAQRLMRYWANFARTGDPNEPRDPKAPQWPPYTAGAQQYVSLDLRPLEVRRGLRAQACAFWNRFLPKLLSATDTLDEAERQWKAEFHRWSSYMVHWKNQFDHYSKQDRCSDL
pIC50: −log10 of the molar value.
reported property: pIC50

smiles str | system name | reported property | value measured
COc1ccc(C(=O)O[C@H]2C=C3[C@H]4CN(Cc5cc6c(cc54)OCO6)[C@H]3C[C@@H]2OC)cc1 | UniProt P22303 | pIC50 | < 4.00
CO[C@H]1C[C@H]2C(=C[C@@H]1OC(=O)c1cccc(C)c1)[C@H]1CN2Cc2cc3c(cc21)OCO3 | UniProt P22303 | pIC50 | < 4.00
CO[C@H]1C[C@H]2C(=C[C@@H]1O)[C@H]1CN2Cc2cc3c(cc21)OCO3 | UniProt P22303 | pIC50 | < 4.00
CO[C@H]1C[C@H]2C(=C[C@@H]1OC(=O)N1CCCCC1)[C@H]1CN2Cc2cc3c(cc21)OCO3 | UniProt P22303 | pIC50 | < 4.00
CO[C@H]1C[C@H]2C(=C[C@@H]1OC(=O)c1cc(Br)cc([N+](=O)[O-])c1)[C@H]1CN2Cc2cc3c(cc21)OCO3 | UniProt P22303 | pIC50 | < 4.00
CO[C@H]1C[C@H]2C(=C[C@@H]1OC(=O)c1ccco1)[C@H]1CN2Cc2cc3c(cc21)OCO3 | UniProt P22303 | pIC50 | < 4.00
CO[C@H]1C=C2[C@H]3CN(Cc4cc5c(cc43)OCO5)[C@H]2C[C@@H]1OC(=O)c1ccc(Cl)c([N+](=O)[O-])c1 | UniProt P22303 | pIC50 | < 4.00

* * *

# system name: UniProt P22303
# test protocol: Inhibition of human AChE at 100 uM using acetylthiocholine as substrate by Ellman's method
Item-by-item account of inhibition

smiles str | inhibition (%)
COc1cccc(C(=O)O[C@H]2C=C3[C@H]4CN(Cc5cc6c(cc54)OCO6)[C@H]3C[C@@H]2OC)c1 | 19.3
CO[C@H]1C[C@H]2C(=C[C@@H]1OC(=O)c1ccc([N+](=O)[O-])cc1)[C@H]1CN2Cc2cc3c(cc21)OCO3 | 48.1
CO[C@H]1C[C@H]2C(=C[C@@H]1OC(=O)c1cc(Br)cc([N+](=O)[O-])c1)[C@H]1CN2Cc2cc3c(cc21)OCO3 | 28
COc1ccc(C(=O)O[C@H]2C=C3[C@H]4CN(Cc5cc6c(cc54)OCO6)[C@H]3C[C@@H]2OC)cc1OC | 17.2
CO[C@H]1C[C@H]2C(=C[C@@H]1OC(=O)c1ccc(Cl)c([N+](=O)[O-])c1)[C@H]1CN2Cc2cc3c(cc21)OCO3 | 83.7
CO[C@H]1C[C@H]2C(=C[C@@H]1OC(=O)c1ccc([N+](=O)[O-])cc1Cl)[C@H]1CN2Cc2cc3c(cc21)OCO3 | 48.6
CO[C@H]1C[C@H]2C(=C[C@@H]1OC(=O)C1CCCCC1)[C@H]1CN2Cc2cc3c(cc21)OCO3 | 1.2
CO[C@H]1C[C@H]2C(=C[C@@H]1OC(=O)c1cccc([N+](=O)[O-])c1)[C@H]1CN2Cc2cc3c(cc21)OCO3 | 55.3
CO[C@H]1C[C@H]2C(=C[C@@H]1OC(=O)c1ccco1)[C@H]1CN2Cc2cc3c(cc21)OCO3 | 15.1
CO[C@H]1C=C2[C@H]3CN(Cc4cc5c(cc43)OCO5)[C@H]2C[C@@H]1OC(=O)c1cc([N+](=O)[O-])ccc1Cl | 1.8
CO[C@H]1C[C@H]2C(=C[C@@H]1O)[C@H]1CN2Cc2cc3c(cc21)OCO3 | 9.2
COc1ccc(C(=O)O[C@H]2C=C3[C@H]4CN(Cc5cc6c(cc54)OCO6)[C@H]3C[C@@H]2OC)cc1 | 12.5
CO[C@H]1C[C@H]2C(=C[C@@H]1OC(=O)c1ccccc1)[C@H]1CN2Cc2cc3c(cc21)OCO3 | 8.5
CO[C@H]1C[C@H]2C(=C[C@@H]1OC(=O)c1ccc(C)c([N+](=O)[O-])c1)[C@H]1CN2Cc2cc3c(cc21)OCO3 | 81.5
CO[C@H]1C[C@H]2C(=C[C@@H]1OC(=O)c1cc([N+](=O)[O-])ccc1Cl)[C@H]1CN2Cc2cc3c(cc21)OCO3 | 78.7

* * *

# test protocol: Selectivity index, ratio of IC50 for human BuChe to IC50 for human AChE
Item-by-item account of Selectivity Index

smiles str | Selectivity Index
CO[C@H]1C[C@H]2C(=C[C@@H]1OC(=O)c1ccc(C)c([N+](=O)[O-])c1)[C@H]1CN2Cc2cc3c(cc21)OCO3 | > 23.1
CO[C@H]1C[C@H]2C(=C[C@@H]1OC(=O)c1cc([N+](=O)[O-])cc([N+](=O)[O-])c1)[C@H]1CN2Cc2cc3c(cc21)OCO3 | > 7.66
CO[C@H]1C[C@H]2C(=C[C@@H]1OC(=O)c1cc([N+](=O)[O-])ccc1Cl)[C@H]1CN2Cc2cc3c(cc21)OCO3 | > 31.4
CO[C@H]1C=C2[C@H]3CN(Cc4cc5c(cc43)OCO5)[C@H]2C[C@@H]1OC(=O)c1ccc([N+](=O)[O-])cc1Cl | < 0.17
CO[C@H]1C[C@H]2C(=C[C@@H]1OC(=O)c1ccc(Cl)c([N+](=O)[O-])c1)[C@H]1CN2Cc2cc3c(cc21)OCO3 | > 62.1
CO[C@H]1C[C@H]2C(=C[C@@H]1OC(=O)C1CCCCC1)[C@H]1CN2Cc2cc3c(cc21)OCO3 | < 0.02
CO[C@H]1C=C2[C@H]3CN(Cc4cc5c(cc43)OCO5)[C@H]2C[C@@H]1OC(=O)N1CCCCC1 | < 0.07

* * *

# system name: Cholinesterase (Homo sapiens)
# Sequence (P06276 whole entry): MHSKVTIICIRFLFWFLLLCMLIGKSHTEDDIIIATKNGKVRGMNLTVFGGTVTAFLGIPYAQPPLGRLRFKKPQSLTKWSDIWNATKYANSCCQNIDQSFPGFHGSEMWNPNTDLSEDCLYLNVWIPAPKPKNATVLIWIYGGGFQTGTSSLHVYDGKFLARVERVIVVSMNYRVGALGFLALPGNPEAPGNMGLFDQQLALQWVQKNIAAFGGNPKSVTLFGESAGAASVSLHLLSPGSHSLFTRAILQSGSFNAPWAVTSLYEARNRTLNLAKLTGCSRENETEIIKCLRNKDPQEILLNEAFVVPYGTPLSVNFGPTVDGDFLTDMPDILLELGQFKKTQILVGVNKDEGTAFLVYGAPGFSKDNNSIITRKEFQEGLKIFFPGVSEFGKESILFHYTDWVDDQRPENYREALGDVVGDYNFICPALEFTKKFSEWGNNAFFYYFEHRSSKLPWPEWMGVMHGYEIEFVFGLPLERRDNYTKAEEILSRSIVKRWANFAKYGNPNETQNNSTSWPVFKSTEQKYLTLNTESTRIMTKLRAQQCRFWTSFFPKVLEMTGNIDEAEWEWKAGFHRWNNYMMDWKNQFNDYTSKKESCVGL
# test protocol: Inhibition of human BuChE at 100 uM using butyrylthiocholine chloride as substrate by Ellman's method

smiles str | result unit | inhibition
CO[C@H]1C[C@H]2C(=C[C@@H]1OC(=O)C1CCCCC1)[C@H]1CN2Cc2cc3c(cc21)OCO3 | % | 20.8
CO[C@H]1C=C2[C@H]3CN(Cc4cc5c(cc43)OCO5)[C@H]2C[C@@H]1OC(=O)N1CCCCC1 | % | 88.2
CO[C@H]1C[C@H]2C(=C[C@@H]1OC(=O)c1cccc([N+](=O)[O-])c1)[C@H]1CN2Cc2cc3c(cc21)OCO3 | % | 18.1
CO[C@H]1C[C@H]2C(=C[C@@H]1OC(=O)c1ccco1)[C@H]1CN2Cc2cc3c(cc21)OCO3 | % | 26.9
CO[C@H]1C=C2[C@H]3CN(Cc4cc5c(cc43)OCO5)[C@H]2C[C@@H]1OC(=O)c1ccc(C)c([N+](=O)[O-])c1 | % | 20.4
CO[C@H]1C[C@H]2C(=C[C@@H]1OC(=O)c1ccc(C)c([N+](=O)[O-])c1)[C@H]1CN2Cc2cc3c(cc21)OCO3 | % | 6.8
CO[C@H]1C[C@H]2C(=C[C@@H]1OC(=O)c1cc([N+](=O)[O-])ccc1Cl)[C@H]1CN2Cc2cc3c(cc21)OCO3 | % | 30
CO[C@H]1C=C2[C@H]3CN(Cc4cc5c(cc43)OCO5)[C@H]2C[C@@H]1O | % | 8.4
CO[C@H]1C[C@H]2C(=C[C@@H]1OC(=O)c1cc(Br)cc([N+](=O)[O-])c1)[C@H]1CN2Cc2cc3c(cc21)OCO3 | % | 31.7
CO[C@H]1C[C@H]2C(=C[C@@H]1OC(=O)c1ccoc1)[C@H]1CN2Cc2cc3c(cc21)OCO3 | % | 30.2
CO[C@H]1C[C@H]2C(=C[C@@H]1OC(=O)c1ccc([N+](=O)[O-])cc1)[C@H]1CN2Cc2cc3c(cc21)OCO3 | % | 26.2
COc1ccccc1C(=O)O[C@H]1C=C2[C@H]3CN(Cc4cc5c(cc43)OCO5)[C@H]2C[C@@H]1OC | % | 30.1
CO[C@H]1C[C@H]2C(=C[C@@H]1O)[C@H]1CN2Cc2cc3c(cc21)OCO3 | % | 9.2
COc1ccc(C(=O)O[C@H]2C=C3[C@H]4CN(Cc5cc6c(cc54)OCO6)[C@H]3C[C@@H]2OC)cc1 | % | 15.5
CO[C@H]1C[C@H]2C(=C[C@@H]1OC(=O)c1ccccc1)[C@H]1CN2Cc2cc3c(cc21)OCO3 | % | 20.1

* * *

pIC50: −log10 of the molar value.
For reference, pIC50 measured on Cholinesterase (Homo sapiens):

smiles str | system name | pIC50
CO[C@H]1C=C2[C@H]3CN(Cc4cc5c(cc43)OCO5)[C@H]2C[C@@H]1OC(=O)c1ccc(C)c([N+](=O)[O-])c1 | Cholinesterase (Homo sapiens) | < 4.00
COc1c2c(cc3c1OCO3)[C@]13C=C[C@H](OC)C[C@H]1N(C2)C[C@H]3OC(=O)c1cccc2ccccc12 | Cholinesterase (Homo sapiens) | 7.00
Cc1ccccc1C(=O)O[C@@H]1C=C[C@]23CCN(Cc4cc5c(cc42)OCO5)[C@H]3C1 | Cholinesterase (Homo sapiens) | 5.10
COc1cccc(C(=O)O[C@H]2C=C3[C@H]4CN(Cc5cc6c(cc54)OCO6)[C@H]3C[C@@H]2OC)c1 | Cholinesterase (Homo sapiens) | < 4.00
CO[C@H]1C=C2[C@H]3CN(Cc4cc5c(cc43)OCO5)[C@H]2C[C@@H]1OC(=O)c1cc([N+](=O)[O-])ccc1Cl | Cholinesterase (Homo sapiens) | < 4.00
COc1ccc(C(=O)O[C@H]2C=C3[C@H]4CN(Cc5cc6c(cc54)OCO6)[C@H]3C[C@@H]2OC)cc1 | Cholinesterase (Homo sapiens) | < 4.00
CO[C@H]1C[C@H]2C(=C[C@@H]1OC(=O)c1ccccc1C)[C@H]1CN2Cc2cc3c(cc21)OCO3 | Cholinesterase (Homo sapiens) | < 4.00
CO[C@H]1C[C@H]2C(=C[C@@H]1OC(=O)c1ccc(C)cc1)[C@H]1CN2Cc2cc3c(cc21)OCO3 | Cholinesterase (Homo sapiens) | < 4.00
CO[C@H]1C[C@H]2C(=C[C@@H]1O)[C@H]1CN2Cc2cc3c(cc21)OCO3 | Cholinesterase (Homo sapiens) | < 4.00
CO[C@H]1C[C@H]2C(=C[C@@H]1OC(=O)N1CCCCC1)[C@H]1CN2Cc2cc3c(cc21)OCO3 | Cholinesterase (Homo sapiens) | 5.76
CO[C@H]1C[C@H]2C(=C[C@@H]1OC(=O)c1cc([N+](=O)[O-])cc([N+](=O)[O-])c1)[C@H]1CN2Cc2cc3c(cc21)OCO3 | Cholinesterase (Homo sapiens) | < 4.00
O=C(O[C@H]1CN2Cc3cc4c(cc3[C@]13C=C[C@@H](O)C[C@H]23)OCO4)c1cccc([N+](=O)[O-])c1 | Cholinesterase (Homo sapiens) | < 4.00
CO[C@H]1C[C@H]2C(=C[C@@H]1OC(=O)c1cccs1)[C@H]1CN2Cc2cc3c(cc21)OCO3 | Cholinesterase (Homo sapiens) | < 4.00
CO[C@H]1C[C@H]2C(=C[C@@H]1OC(=O)c1ccccc1)[C@H]1CN2Cc2cc3c(cc21)OCO3 | Cholinesterase (Homo sapiens) | < 4.00
CO[C@H]1C[C@H]2C(=C[C@@H]1OC(=O)c1cc(Br)cc([N+](=O)[O-])c1)[C@H]1CN2Cc2cc3c(cc21)OCO3 | Cholinesterase (Homo sapiens) | < 4.00
